The values you see were collected from ChEMBL document CHEMBL3792365.

experiment-notes: Growth inhibition of human SF539 cells at 10 uM after 48 hrs by sulforhodamine B assay
Assay type: functional
study-conditions: SF-539, 48 h, values are per cent of control
The entries below come with measured growth, % of control at 10 µM values attached.

# smiles-data, growth, % of control at 10 µM [%]
data = [
    ("COc1cc(/C=C(\\C#N)c2ccc3c(c2)OCO3)cc(OC)c1OC", 92.4),
    ("COc1ccc(/C=C(\\C#N)c2ccc3c(c2)OCO3)c(Cl)c1OC", 91.8),
    ("N#C/C(=C\\c1ccc2ccccc2n1)c1ccc2c(c1)OCO2", 69.6),
    ("COc1ccc(/C=C(\\C#N)c2ccc3c(c2)OCO3)c(OC)c1", 19),
    ("COc1ccc(/C=C(\\C#N)c2ccc3c(c2)OCO3)cc1OC", 103),
    ("COc1ccc(/C=C(\\C#N)c2ccc3c(c2)OCO3)cn1", 83.1),
    ("N#C/C(=C\\c1cccc2ccccc12)c1ccc2c(c1)OCO2", 67.9),
]
